Exercise: state measured inhibition for each of the compounds provided.
# system_tested: Serine/threonine-protein kinase TBK1 (Homo sapiens) (UniProt Q9UHD2);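 note: values are the mean TBK1 inhibition, taken from the GSK PKIS screening data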
# Sequence (Q9UHD2 whole entry): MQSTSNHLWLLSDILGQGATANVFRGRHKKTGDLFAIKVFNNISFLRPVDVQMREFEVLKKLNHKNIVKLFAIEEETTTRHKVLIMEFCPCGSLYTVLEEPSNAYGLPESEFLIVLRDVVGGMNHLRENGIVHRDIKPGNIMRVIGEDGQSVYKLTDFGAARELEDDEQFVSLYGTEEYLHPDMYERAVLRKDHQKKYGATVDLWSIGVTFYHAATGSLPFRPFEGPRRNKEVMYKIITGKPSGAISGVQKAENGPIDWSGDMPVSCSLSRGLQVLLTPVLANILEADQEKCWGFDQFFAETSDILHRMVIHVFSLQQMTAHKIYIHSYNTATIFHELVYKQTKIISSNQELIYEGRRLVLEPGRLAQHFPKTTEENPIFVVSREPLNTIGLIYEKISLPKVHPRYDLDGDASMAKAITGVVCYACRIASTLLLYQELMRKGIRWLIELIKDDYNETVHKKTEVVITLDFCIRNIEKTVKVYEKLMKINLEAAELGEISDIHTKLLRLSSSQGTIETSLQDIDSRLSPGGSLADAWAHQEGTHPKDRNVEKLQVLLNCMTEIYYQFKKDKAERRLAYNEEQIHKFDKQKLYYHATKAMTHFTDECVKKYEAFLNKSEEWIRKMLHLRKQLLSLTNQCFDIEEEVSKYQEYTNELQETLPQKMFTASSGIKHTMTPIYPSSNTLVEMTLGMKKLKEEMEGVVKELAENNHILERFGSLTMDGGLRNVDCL
# cond: at 0.1 µM
Write the number in % without appending the unit.

The recorded inhibition for NC(=O)Cc1ccccc1Oc1nccc(-c2c(-c3ccc(F)cc3)ncn2C2CCNCC2)n1 is 5.2

Entry CN1CCN(CCCNc2nc3ccc(Oc4ccc(NC(=O)Nc5cc(C(F)(F)F)ccc5F)cc4)cc3[nH]2)CC1 — recorded inhibition = 1.88

For reference, reported inhibition for NC(=O)c1ccc(Oc2nccc(-c3c(-c4ccc(F)cc4)ncn3C3CCNCC3)n2)cc1 stands at 3.9

Entry under test: COc1cc(Nc2ncc(-c3ccccc3)o2)cc(OC)c1OC . Its inhibition was 2.26

Record FC(F)(F)c1cccc(Nc2nccc(-c3cnn4nc(-c5ccccc5)ccc34)n2)c1 . Reported inhibition: -0.2

---

# system_tested: Tyrosine-protein kinase Fes/Fps (Homo sapiens) (UniProt P07332)
# Sequence (P07332 whole entry): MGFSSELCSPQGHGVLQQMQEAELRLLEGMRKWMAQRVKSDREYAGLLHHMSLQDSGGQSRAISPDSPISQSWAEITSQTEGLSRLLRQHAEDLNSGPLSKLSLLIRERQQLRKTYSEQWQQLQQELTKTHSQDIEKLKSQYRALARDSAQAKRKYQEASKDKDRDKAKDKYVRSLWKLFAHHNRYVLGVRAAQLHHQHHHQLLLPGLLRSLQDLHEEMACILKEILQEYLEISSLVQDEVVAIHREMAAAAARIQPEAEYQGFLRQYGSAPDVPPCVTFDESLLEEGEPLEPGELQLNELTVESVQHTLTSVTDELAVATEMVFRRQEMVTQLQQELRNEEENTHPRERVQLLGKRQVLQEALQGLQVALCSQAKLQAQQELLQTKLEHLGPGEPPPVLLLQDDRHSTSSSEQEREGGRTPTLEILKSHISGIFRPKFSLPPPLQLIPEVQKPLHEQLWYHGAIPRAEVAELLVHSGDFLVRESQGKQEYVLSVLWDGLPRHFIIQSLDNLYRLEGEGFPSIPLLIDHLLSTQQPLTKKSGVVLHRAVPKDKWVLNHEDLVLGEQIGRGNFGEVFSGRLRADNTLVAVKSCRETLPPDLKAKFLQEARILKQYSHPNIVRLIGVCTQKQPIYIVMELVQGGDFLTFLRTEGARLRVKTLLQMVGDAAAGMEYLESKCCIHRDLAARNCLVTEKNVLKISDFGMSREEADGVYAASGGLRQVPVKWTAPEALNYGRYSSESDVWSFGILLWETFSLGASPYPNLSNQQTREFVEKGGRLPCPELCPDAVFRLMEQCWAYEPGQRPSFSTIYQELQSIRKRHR
# cond: at 0.1 µM
# Description: GSK_PKIS: FES mean inhibition at 0.1 uM [Nanosyn]
Give inhibition for every item shown.
Numbers only; they are read as %.

Tested on Tyrosine-protein kinase Fes/Fps (Homo sapiens) (UniProt P07332): NC(=O)c1ccc(Oc2nccc(-c3c(-c4ccc(F)cc4)ncn3C3CCNCC3)n2)cc1 . Observed inhibition: 4.82

Test item O=C(NCC1CC1)c1ccc(-c2cccc(C(=O)NC3CC3)c2)cc1 ; Tyrosine-protein kinase Fes/Fps (Homo sapiens) (UniProt P07332); reported inhibition was 1.39

Summary line: CN(C)c1ccc2c(c1)/C(=C/Nc1ccc(S(N)(=O)=O)cc1)C(=O)N2 , Tyrosine-protein kinase Fes/Fps (Homo sapiens) (UniProt P07332), reported inhibition = 0.6

Param item: COc1ccc2cc(-c3c(-c4ccncc4)nc(-c4ccc(S(C)(=O)=O)cc4C)n3C)ccc2c1 ; param system: Tyrosine-protein kinase Fes/Fps (Homo sapiens) (UniProt P07332); output inhibition: 3.14

The observed inhibition for Fc1ccc(-c2ncn(CCCN3CCOCC3)c2-c2ccncc2)cc1 when tested with Tyrosine-protein kinase Fes/Fps (Homo sapiens) (UniProt P07332) stands at -0.1

For CCc1nccc2c1nc(-c1nonc1N)n2CC on Tyrosine-protein kinase Fes/Fps (Homo sapiens) (UniProt P07332), measured inhibition was 0.14

Let me check: CS(=O)(=O)CCNCc1cc(-c2cc3c(Nc4ccc(OCc5cccc(F)c5)c(Cl)c4)ncnc3s2)cs1 , system Tyrosine-protein kinase Fes/Fps (Homo sapiens) (UniProt P07332), measured inhibition is 4.73

Lab entry: Tyrosine-protein kinase Fes/Fps (Homo sapiens) (UniProt P07332) assay, compound Fc1ccc(-c2ncn(C3CCNCC3)c2-c2ccnc(Oc3ccc(Oc4ccccc4)cc3)n2)cc1 , inhibition = 3.48

With Tyrosine-protein kinase Fes/Fps (Homo sapiens) (UniProt P07332) as the test system, CCS(=O)(=O)c1ccc(OC)c(Nc2ncc(-c3ccccc3Cl)o2)c1 showed inhibition of 0.35

inhibition of CN(c1ccc(NC(=O)Nc2c(Cl)cccc2Cl)cc1)c1ccnc(Nc2cccc(CS(C)(=O)=O)c2)n1 , assay on Tyrosine-protein kinase Fes/Fps (Homo sapiens) (UniProt P07332), is 11.1

Record O=C(Nc1ccc(Oc2ccc3[nH]c(NC(=O)c4ccccc4)nc3c2)cc1)Nc1cc(C(F)(F)F)ccc1F ; system Tyrosine-protein kinase Fes/Fps (Homo sapiens) (UniProt P07332); inhibition = 2.28

// compound CN1CCN(CCCNc2nc3ccc(Oc4ccc(NC(=O)Nc5cc(C(F)(F)F)ccc5F)cc4)cc3[nH]2)CC1 , assay Tyrosine-protein kinase Fes/Fps (Homo sapiens) (UniProt P07332), inhibition value: 1.57

Entry Fc1ccc(-c2ncn(C3CCNCC3)c2-c2ccnc(Oc3ccc4c(c3)OCO4)n2)cc1 : inhibition on Tyrosine-protein kinase Fes/Fps (Homo sapiens) (UniProt P07332) = 4.19

Param item: CCS(=O)(=O)c1ccc(OC)c(Nc2ncc(-c3cccc(-c4ccccc4F)c3)o2)c1 ; param system: Tyrosine-protein kinase Fes/Fps (Homo sapiens) (UniProt P07332); output inhibition: -0.07

# inhibition measured on Tyrosine-protein kinase Fes/Fps (Homo sapiens) (UniProt P07332) for item COc1ccc(-c2ccc3c(NC(=O)C4CC4)n[nH]c3n2)cc1 = 0.69

Entry Cc1nnc(-c2ccc(C)c(-c3ccc(C(=O)NCc4ccc(Cl)cc4)cc3)c2)o1 under Tyrosine-protein kinase Fes/Fps (Homo sapiens) (UniProt P07332) had inhibition of 2.32

Here O=C(Nc1n[nH]c2cc(-c3ccccc3)ccc12)C1CC1 was tested on Tyrosine-protein kinase Fes/Fps (Homo sapiens) (UniProt P07332), and its inhibition came to 2.97

// inhibition (Tyrosine-protein kinase Fes/Fps (Homo sapiens) (UniProt P07332)) for Fc1ccc(-c2ncn(C3CCNCC3)c2-c2ccnc(Oc3ccc(F)c(F)c3)n2)cc1 = 2.73

// inhibition (Tyrosine-protein kinase Fes/Fps (Homo sapiens) (UniProt P07332)) for O=C(Nc1n[nH]c2cc(-c3cc(F)ccc3F)ccc12)C1CC1 = 2.89

Record for NS(=O)(=O)c1ccc(N/N=C2\C(=O)Nc3ccc(-c4cnco4)cc32)cc1 under target or system Tyrosine-protein kinase Fes/Fps (Homo sapiens) (UniProt P07332): inhibition reported as 0.3

Recorded inhibition for CNC(=O)c1cncc(/C=C/c2c(C)cccc2C)c1 on Tyrosine-protein kinase Fes/Fps (Homo sapiens) (UniProt P07332) was -0.51

Param item: O=C1Nc2ccccc2/C1=C/Nc1ccc(-n2cncn2)cc1 ; param system: Tyrosine-protein kinase Fes/Fps (Homo sapiens) (UniProt P07332); output inhibition: 2.67

Form field inhibition for item O=C1Nc2ccc(I)cc2C1=Cc1cc(Br)c(O)c(Br)c1 on Tyrosine-protein kinase Fes/Fps (Homo sapiens) (UniProt P07332): 3.93

Field inhibition (system: Tyrosine-protein kinase Fes/Fps (Homo sapiens) (UniProt P07332)) for entry c1ccc(Oc2ccc(Nc3ncc(-c4ccccc4)o3)cc2)cc1 = 0.55

The recorded inhibition with Tyrosine-protein kinase Fes/Fps (Homo sapiens) (UniProt P07332) for c1ccc(-c2n[nH]cc2-c2ccnc(-c3ccc(OCCN4CCOCC4)cc3)c2)nc1 was 0.55

Tested on Tyrosine-protein kinase Fes/Fps (Homo sapiens) (UniProt P07332), the item NC(=O)c1cc(-c2ccncc2)cc(-c2ccccc2)c1N showed inhibition equal to 3.8

Observed inhibition, Tyrosine-protein kinase Fes/Fps (Homo sapiens) (UniProt P07332), CN(C)CCCNc1nccc(-c2c(-c3ccc(F)cc3)nn3cc(C(F)(F)F)ccc23)n1 : 0.87

Case C[C@@H](Oc1cc(-n2cnc3ccc(OC4CCN(C)CC4)cc32)sc1C(N)=O)c1ccccc1Cl , Tyrosine-protein kinase Fes/Fps (Homo sapiens) (UniProt P07332), inhibition recorded as 2.48

Entry COc1cc(C)c(N(C)C(=O)CN(C)C)cc1Nc1nc(Nc2cccc(F)c2C(N)=O)c2cc[nH]c2n1 , Tyrosine-protein kinase Fes/Fps (Homo sapiens) (UniProt P07332) data, inhibition value: 5.04

The compound COc1cccc(/C=N/Nc2ncnc3c2cnn3-c2cccc(OC)c2)c1 , tested on Tyrosine-protein kinase Fes/Fps (Homo sapiens) (UniProt P07332), showed inhibition of 3.43

The compound CCC(=O)Nc1ccc(C)c(-c2ccc(C(=O)NCC3CC3)cc2)c1 , when measured on Tyrosine-protein kinase Fes/Fps (Homo sapiens) (UniProt P07332), yielded inhibition of 3.63

Entry COc1cccc(-n2cnc3c(N/N=C/c4ccncc4)ncnc32)c1 under Tyrosine-protein kinase Fes/Fps (Homo sapiens) (UniProt P07332) had inhibition of -0.04

Tyrosine-protein kinase Fes/Fps (Homo sapiens) (UniProt P07332) assay, compound FC(F)(F)c1cccc(Nc2nccc(-c3cnn4nc(-c5ccccc5)ccc34)n2)c1 , recorded inhibition = 1.27

The reported inhibition value, Tyrosine-protein kinase Fes/Fps (Homo sapiens) (UniProt P07332), for Cc1ccc(C(=O)NC2CCC2)cc1-c1ccc(C(=O)NCC2CC2)cc1 reads 2.48

Form field inhibition for item N#Cc1ccc(Oc2nccc(-c3c(-c4ccc(F)cc4)ncn3C3CCNCC3)n2)cc1 on Tyrosine-protein kinase Fes/Fps (Homo sapiens) (UniProt P07332): 4.54

Simply: O=C(Nc1n[nH]c2nc(-c3ccc(O)cc3)c(Br)cc12)C1CC1 , Tyrosine-protein kinase Fes/Fps (Homo sapiens) (UniProt P07332), inhibition = 3.04

# value of inhibition, Tyrosine-protein kinase Fes/Fps (Homo sapiens) (UniProt P07332), item COc1cc(Nc2ncc3c(C)nc(-c4cccc(C(F)(F)F)c4)n3n2)cc(OC)c1OC = 2.74

Tested on Tyrosine-protein kinase Fes/Fps (Homo sapiens) (UniProt P07332), the item Cc1ccc(NC(=O)c2ccoc2)cc1-c1ccc(C(=O)NCC2CC2)cc1 showed inhibition equal to 2.83

Kindly note: Tyrosine-protein kinase Fes/Fps (Homo sapiens) (UniProt P07332), COc1ccc(C2=C(N3CCc4ccccc43)C(=O)NC2=O)cc1 , inhibition value reported: 3.03

Item COc1cc(Nc2ncc(-c3ccccc3)o2)cc(OC)c1OC ; assay system Tyrosine-protein kinase Fes/Fps (Homo sapiens) (UniProt P07332); inhibition reported as 0.68

Observed inhibition, Tyrosine-protein kinase Fes/Fps (Homo sapiens) (UniProt P07332), C#Cc1cccc(Nc2ncnc3ccc(OCCCCNCCS(C)(=O)=O)cc23)c1 : 2.69

The values you see were collected from ChEMBL document CHEMBL1961873.
